System under test: GST-Dm-Relish (Drosophila melanogaster, UniProt Q94527 99-473)
Sequence: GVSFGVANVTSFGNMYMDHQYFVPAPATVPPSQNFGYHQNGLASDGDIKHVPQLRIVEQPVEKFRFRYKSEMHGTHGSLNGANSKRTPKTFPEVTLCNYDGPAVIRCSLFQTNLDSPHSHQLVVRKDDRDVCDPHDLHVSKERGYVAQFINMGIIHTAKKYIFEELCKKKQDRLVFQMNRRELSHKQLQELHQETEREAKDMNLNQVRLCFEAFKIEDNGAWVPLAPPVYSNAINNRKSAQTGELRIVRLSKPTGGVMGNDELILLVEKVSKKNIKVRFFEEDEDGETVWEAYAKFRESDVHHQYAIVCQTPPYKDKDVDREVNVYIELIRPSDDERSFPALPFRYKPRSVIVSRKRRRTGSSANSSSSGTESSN
Protocol description: protein-binding microarray (PBM); PBM: ~300 nM protein, 6 mM HEPES pH 7.8, 80 mM KCl, 0.5 mM EDTA, 0.5 mM EGTA, 6% glycerol, 35 ng/ul poly-dIdC, 1% milk, 1 h, room temperature; high values mean tight binding
Condition notes: dsDNA, one strand shown
# reported binding signal; entries follow
# output: bare number, implied unit z-score

Recorded results for 2 sequences are shown here.
CCGATTAACATCAGGGATTTTACTGATGTTAATCGGGTCTTGATTCGCTTGACGCTGCTG
7.1
CCGATTAACATCACGGGGAAACCTGATGTTAATCGGGTCTTGATTCGCTTGACGCTGCTG
7.04

Here is another sequence to look at.
Query: Could you share which binding signal value was measured for `CCGATTAACATCAAAAATCTCCCTGATGTTAATCGGGTCTTGATTCGCTTGACGCTGCTG` ?
Response: 2.94

====

System under test: GST-Nv-NF-kB (Ser allele) (Nematostella vectensis, UniProt A7UNT2 2-411)
Sequence: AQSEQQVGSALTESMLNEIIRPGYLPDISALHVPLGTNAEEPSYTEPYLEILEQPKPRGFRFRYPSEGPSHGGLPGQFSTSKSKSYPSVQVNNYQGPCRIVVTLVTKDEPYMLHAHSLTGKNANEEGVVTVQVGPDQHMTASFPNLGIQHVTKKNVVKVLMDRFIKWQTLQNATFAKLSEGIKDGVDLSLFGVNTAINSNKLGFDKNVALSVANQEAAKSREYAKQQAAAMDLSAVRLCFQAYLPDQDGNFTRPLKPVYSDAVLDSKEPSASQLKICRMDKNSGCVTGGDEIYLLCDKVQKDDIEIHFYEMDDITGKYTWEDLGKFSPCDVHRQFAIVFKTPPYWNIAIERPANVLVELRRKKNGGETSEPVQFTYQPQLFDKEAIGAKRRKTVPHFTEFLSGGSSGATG
Protocol description: protein-binding microarray (PBM); PBM: ~300 nM protein, 6 mM HEPES pH 7.8, 80 mM KCl, 0.5 mM EDTA, 0.5 mM EGTA, 6% glycerol, 35 ng/ul poly-dIdC, 1% milk, 1 h, room temperature; Ap Aiptasia and Nv Nematostella (sea anemones) / Co Capsaspora / Aq Amphimedon (sponge) / Dm Drosophila / Hu human; RHD is the Rel homology domain; high values mean tight binding
Condition notes: dsDNA, one strand shown
Overview of recorded binding signal for various sequences
State just the number; it will be interpreted in z-score.

Query: Quick one: binding signal for `CCGATTAACATCAAAACATCCCCTGATGTTAATCGGGTCTTGATTCGCTTGACGCTGCTG` ?
Response: 8.22

Query: # binding signal lookup, item `CCGATTAACATCACGGAACCCCCTGATGTTAATCGGGTCTTGATTCGCTTGACGCTGCTG`
Response: 6.13

Query: For the sequence shown here, `CCGATTAACATCAGGGAAAGCCCTGATGTTAATCGGGTCTTGATTCGCTTGACGCTGCTG` , give the reported binding signal.
Response: 4.62

Query: Which binding signal value is on record for `CCGATTAACATCACGGGAAATTCTGATGTTAATCGGGTCTTGATTCGCTTGACGCTGCTG` ?
Response: 5.98

Query: Fill blank: measured binding signal of the sequence `CCGATTAACATCAGGCCATTCCCTGATGTTAATCGGGTCTTGATTCGCTTGACGCTGCTG` is ____.
Response: 1.77

Data origin: paper PMC5700166
